- Assay details: Plasma pharmacokinetics of LXI-15029 (LC-MS/MS, non-compartmental analysis)
- Type: in vivo, human
- Measurement conditions: human, plasma, oral; multiple dose, cycle 1 day 28; 150 mg BID (n = 4); geometric mean (coefficient of variation)
Reported property: Cmax at 28 day

Query: Read off the recorded Cmax at 28 day for CNC(=O)c1cccc(-c2ccc3c(N4C5CCC4COC5)nc(N4CCOC[C@@H]4C)nc3n2)c1 [LXI-15029]
Result: 5840 ng/mL

----------
- Assay details: Plasma pharmacokinetics of LXI-15029 (LC-MS/MS, non-compartmental analysis)
- Assay type: in vivo, human
- Measurement conditions: human, plasma, oral; single dose, cycle 1 day 1; 20 mg BID (n = 3); geometric mean (coefficient of variation)
Reported property: Cmax (ng/mL)
Give a bare numeral; the unit ng/mL is implied.

Query: Read off the recorded Cmax for "CNC(=O)c1cccc(-c2ccc3c(N4C5CCC4COC5)nc(N4CCOC[C@@H]4C)nc3n2)c1"
Result: 474

----------
- Assay details: Plasma pharmacokinetics of LXI-15029 (LC-MS/MS, non-compartmental analysis)
- Format: in vivo, human
- Measurement conditions: human, plasma, oral, 20 mg BID, multiple dose, cycle 1 day 28; 20 mg BID (n = 3); geometric mean (coefficient of variation); read-out: Cav ss
Reported property: concentration at 28 day
The reply should consist of the numeric value with the unit placed after it.

Query: Read off the recorded concentration at 28 day for CNC(=O)c1cccc(-c2ccc3c(N4C5CCC4COC5)nc(N4CCOC[C@@H]4C)nc3n2)c1 [LXI-15029]
Result: 71.9 ng/mL

----------
- Assay details: Plasma pharmacokinetics of LXI-15029 (LC-MS/MS, non-compartmental analysis)
- Type: in vivo, human
- Measurement conditions: human, plasma, oral; multiple dose, cycle 1 day 28; 60 mg BID (n = 4); geometric mean (coefficient of variation)
Reported property: AUC (ng·h/mL)
Give a bare numeral; the unit ng·h/mL is implied.

Query: Read off the recorded AUC for CNC(=O)c1cccc(-c2ccc3c(N4C5CCC4COC5)nc(N4CCOC[C@@H]4C)nc3n2)c1 [LXI-15029]
Result: 5730

----------
- Assay details: Plasma pharmacokinetics of LXI-15029 (LC-MS/MS, non-compartmental analysis)
- Assay type: in vivo, human
- Measurement conditions: human, plasma, oral; multiple dose, cycle 1 day 28; 20 mg BID (n = 3); geometric mean (coefficient of variation)
Reported property: Cmax at 28 day (ng/mL)
Give a bare numeral; the unit ng/mL is implied.

Query: Read off the recorded Cmax at 28 day for "CNC(=O)c1cccc(-c2ccc3c(N4C5CCC4COC5)nc(N4CCOC[C@@H]4C)nc3n2)c1"
Result: 350

----------
- Assay details: Plasma pharmacokinetics of LXI-15029 (LC-MS/MS, non-compartmental analysis)
- Format: in vivo, human
- Measurement conditions: human, plasma, oral; single dose, cycle 1 day 1; 10 mg BID (n = 3); geometric mean (coefficient of variation)
Reported property: Cmax (ng/mL)
Give a bare numeral; the unit ng/mL is implied.

Query: Read off the recorded Cmax for "CNC(=O)c1cccc(-c2ccc3c(N4C5CCC4COC5)nc(N4CCOC[C@@H]4C)nc3n2)c1"
Result: 66.5

----------
- Assay details: Plasma pharmacokinetics of LXI-15029 (LC-MS/MS, non-compartmental analysis)
- Format: in vivo, human
- Measurement conditions: human, plasma, oral, 80 mg BID, multiple dose, cycle 1 day 28; 80 mg BID (n = 4); geometric mean (coefficient of variation); read-out: Cmin ss
Reported property: concentration at 28 day (ng/mL)
Give a bare numeral; the unit ng/mL is implied.

Query: Read off the recorded concentration at 28 day for CNC(=O)c1cccc(-c2ccc3c(N4C5CCC4COC5)nc(N4CCOC[C@@H]4C)nc3n2)c1 [LXI-15029]
Result: 6.41

----------
- Assay details: Plasma pharmacokinetics of LXI-15029 (LC-MS/MS, non-compartmental analysis)
- Assay type: in vivo, human
- Measurement conditions: human, plasma, oral, 60 mg BID, multiple dose, cycle 1 day 28; 60 mg BID (n = 4); geometric mean (coefficient of variation); read-out: Cav ss
Reported property: concentration at 28 day (ng/mL)
Give a bare numeral; the unit ng/mL is implied.

Query: Read off the recorded concentration at 28 day for "CNC(=O)c1cccc(-c2ccc3c(N4C5CCC4COC5)nc(N4CCOC[C@@H]4C)nc3n2)c1"
Result: 477

----------
- Assay details: Plasma pharmacokinetics of LXI-15029 (LC-MS/MS, non-compartmental analysis)
- Type: in vivo, human
- Measurement conditions: human, plasma, oral, 10 mg, multiple dose, cycle 1 day 28; 10 mg BID (n = 3); median (min, max)
Reported property: Tmax at 28 day (h)
Give a bare numeral; the unit h is implied.

Query: Read off the recorded Tmax at 28 day for CNC(=O)c1cccc(-c2ccc3c(N4C5CCC4COC5)nc(N4CCOC[C@@H]4C)nc3n2)c1 [LXI-15029]
Result: 1.02

----------
- Assay details: Plasma pharmacokinetics of LXI-15029 (LC-MS/MS, non-compartmental analysis)
- Format: in vivo, human
- Measurement conditions: human, plasma, oral; multiple dose, cycle 1 day 28; 40 mg BID (n = 3); geometric mean (coefficient of variation)
Reported property: Cmax at 28 day
The reply should consist of the numeric value with the unit placed after it.

Query: Read off the recorded Cmax at 28 day for "CNC(=O)c1cccc(-c2ccc3c(N4C5CCC4COC5)nc(N4CCOC[C@@H]4C)nc3n2)c1"
Result: 1010 ng/mL

----------
- Assay details: Plasma pharmacokinetics of LXI-15029 (LC-MS/MS, non-compartmental analysis)
- Type: in vivo, human
- Measurement conditions: human, plasma, oral, 40 mg, single dose, cycle 1 day 1; 40 mg BID (n = 3); arithmetic mean ± standard deviation; read-out: t1/2 (converted)
Reported property: half-life (min)
Give a bare numeral; the unit min is implied.

Query: Read off the recorded half-life for CNC(=O)c1cccc(-c2ccc3c(N4C5CCC4COC5)nc(N4CCOC[C@@H]4C)nc3n2)c1 [LXI-15029]
Result: 67.8

----------
- Assay details: Plasma pharmacokinetics of LXI-15029 (LC-MS/MS, non-compartmental analysis)
- Type: in vivo, human
- Measurement conditions: human, plasma, oral, 150 mg, multiple dose, cycle 1 day 28; 150 mg BID (n = 4); median (min, max); read-out: Tmax ss
Reported property: Tmax

Query: Read off the recorded Tmax for "CNC(=O)c1cccc(-c2ccc3c(N4C5CCC4COC5)nc(N4CCOC[C@@H]4C)nc3n2)c1"
Result: 58.8 min

----------
- Assay details: Plasma pharmacokinetics of LXI-15029 (LC-MS/MS, non-compartmental analysis)
- Type: in vivo, human
- Measurement conditions: human, plasma, oral, 150 mg, single dose, cycle 1 day 1; 150 mg BID (n = 4); arithmetic mean ± standard deviation; read-out: t1/2 (converted)
Reported property: half-life (h)
Give a bare numeral; the unit h is implied.

Query: Read off the recorded half-life for CNC(=O)c1cccc(-c2ccc3c(N4C5CCC4COC5)nc(N4CCOC[C@@H]4C)nc3n2)c1 [LXI-15029]
Result: 1.94

----------
- Assay details: Plasma pharmacokinetics of LXI-15029 (LC-MS/MS, non-compartmental analysis)
- Assay type: in vivo, human
- Measurement conditions: human, plasma, oral, 150 mg, single dose, cycle 1 day 1; 150 mg BID (n = 4); median (min, max); read-out: Tmax
Reported property: Tmax
The reply should consist of the numeric value with the unit placed after it.

Query: Read off the recorded Tmax for "CNC(=O)c1cccc(-c2ccc3c(N4C5CCC4COC5)nc(N4CCOC[C@@H]4C)nc3n2)c1"
Result: 49.2 min

----------
- Assay details: Plasma pharmacokinetics of LXI-15029 (LC-MS/MS, non-compartmental analysis)
- Format: in vivo, human
- Measurement conditions: human, plasma, oral; single dose, cycle 1 day 1; 110 mg BID (n = 3); geometric mean (coefficient of variation)
Reported property: Cmax (ng/mL)
Give a bare numeral; the unit ng/mL is implied.

Query: Read off the recorded Cmax for "CNC(=O)c1cccc(-c2ccc3c(N4C5CCC4COC5)nc(N4CCOC[C@@H]4C)nc3n2)c1"
Result: 2930

----------
- Assay details: Plasma pharmacokinetics of LXI-15029 (LC-MS/MS, non-compartmental analysis)
- Assay type: in vivo, human
- Measurement conditions: human, plasma, oral, 60 mg BID, multiple dose, cycle 1 day 28; 60 mg BID (n = 4); geometric mean (coefficient of variation); read-out: Cmin ss
Reported property: concentration at 28 day (ng/mL)
Give a bare numeral; the unit ng/mL is implied.

Query: Read off the recorded concentration at 28 day for CNC(=O)c1cccc(-c2ccc3c(N4C5CCC4COC5)nc(N4CCOC[C@@H]4C)nc3n2)c1 [LXI-15029]
Result: 35

----------
- Assay details: Plasma pharmacokinetics of LXI-15029 (LC-MS/MS, non-compartmental analysis)
- Format: in vivo, human
- Measurement conditions: human, plasma, oral, 110 mg, multiple dose, cycle 1 day 28; 110 mg BID (n = 3); median (min, max); read-out: Tmax ss
Reported property: Tmax (min)
Give a bare numeral; the unit min is implied.

Query: Read off the recorded Tmax for "CNC(=O)c1cccc(-c2ccc3c(N4C5CCC4COC5)nc(N4CCOC[C@@H]4C)nc3n2)c1"
Result: 40.2
